Molecular target: MDMX (Homo sapiens, UniProt O15151)
Sequence (O15151 1-125): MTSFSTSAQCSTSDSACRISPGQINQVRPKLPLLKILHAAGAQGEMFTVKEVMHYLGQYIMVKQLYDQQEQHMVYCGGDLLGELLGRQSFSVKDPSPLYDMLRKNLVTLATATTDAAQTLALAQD
Assay: Competitive fluorescence polarization assay for MDMX
Format: binding
Settings: competitive FP assay, read-out: IC50 (MDMX)
Where a SMILES comes first, the peptide text is derived from it. Bridges are numbered along the chain shown (N, C = ends). [ ]: non-standard residue; d: D form. dPhe(4-CF3) = N[C@H](Cc1ccc(C(F)(F)F)cc1)C(=O)O; R8 = C=CCCCCCC[C@@](C)(N)C(=O)O; R5 = C=CCCC[C@@](C)(N)C(=O)O; hLeu = CC(C)CC[C@H](N)C(=O)O; S5 = C=CCCC[C@](C)(N)C(=O)O; Aib = CC(C)(N)C(=O)O
ENDPOINT: IC50

Here is how some compounds turned out for IC50.
Task: Which IC50 is reported for this compound? CC(=O)N[C@@H](CC(C)C)C(=O)N[C@H](C(=O)N[C@@H](Cc1ccccc1)C(=O)N[C@]1(C)CCCCCCC=CCCC[C@@](C)(C(=O)N[C@@H](CO)C(=O)N[C@@H](Cc2c[nH]c3ccccc23)C(=O)N[C@@H](C)C(N)=O)NC(=O)[C@H](CC(C)C)NC(=O)[C@H](CCC(N)=O)NC(=O)[C@H](C)NC(=O)[C@H](Cc2c[nH]c3ccccc23)NC(=O)[C@H](Cc2ccc(O)cc2)NC(=O)[C@H](C)NC1=O)[C@@H](C)O (single isomer, unassigned)
Output: 100 to 1000 nM

Task: For the compound shown here, CC[C@H](C)[C@H](NC(=O)[C@H](Cc1c[nH]cn1)NC(=O)[C@H](C)NC(=O)[C@]1(C)CCCC=CCCCCCC[C@@](C)(NC(=O)[C@H](Cc2ccccc2)NC(=O)[C@@H](NC(=O)[C@H](CC(C)C)NC(C)=O)[C@@H](C)O)C(=O)N[C@@H](CCC(=O)O)C(=O)N[C@@H](Cc2c[nH]cn2)C(=O)N[C@@H](Cc2c[nH]c3ccccc23)C(=O)N[C@@H](C)C(=O)N[C@@H](CCC(N)=O)C(=O)N[C@@H](CC(C)C)C(=O)N1)C(=O)N[C@H](C)C(N)=O (single isomer, unassigned) , give the reported IC50.
Output: 100 to 1000 nM

Task: Looking for the measured IC50 of CCCC[C@H](NC(=O)[C@H](C)NC(=O)[C@H](C)NC(=O)[C@]1(C)CCCC=CCCCCCC[C@@](C)(NC(=O)[C@H](Cc2ccccc2)NC(=O)[C@@H](NC(=O)[C@H](CC(C)C)NC(C)=O)[C@@H](C)O)C(=O)N[C@@H](C)C(=O)N[C@@H](Cc2ccc(O)cc2)C(=O)N(C)[C@@H](Cc2c[nH]c3ccccc23)C(=O)N[C@@H](C)C(=O)N[C@@H](CCC(N)=O)C(=O)N[C@@H](CC(C)C)C(=O)N1)C(=O)N[C@@H](C)C(N)=O (single isomer, unassigned) , can you help?
Output: > 1000 nM

Task: IC50 lookup needed for CCCC[C@H](NC(=O)[C@H](C)NC(=O)[C@H](C)NC(=O)[C@]1(C)CCCC=CCCCCCC[C@@](C)(NC(=O)[C@H](Cc2ccccc2)NC(=O)[C@@H](NC(=O)[C@H](CC(C)C)NC(C)=O)[C@@H](C)O)C(=O)N[C@@H](C)C(=O)N[C@@H](Cc2ccc(O)cc2)C(=O)N[C@@H](Cc2c[nH]c3ccccc23)C(=O)N[C@@H](C)C(=O)N[C@@H](CCC(N)=O)C(=O)N[C@@H](CC(C)C)C(=O)N1)C(=O)N[C@@H](C)C(=O)N[C@H](C)C(N)=O (single isomer, unassigned) , thanks.
Output: 10 to 100 nM

Task: Give the measured IC50 of CC(=O)N[C@@H](CC(C)C)C(=O)N[C@H](C(=O)N[C@@H](Cc1ccccc1)C(=O)N[C@]1(C)CCCCCCC=CCCC[C@@](C)(C(=O)N[C@@H](CO)C(=O)N[C@H](C(=O)NCC(N)=O)C(C)C)NC(=O)[C@H](CC(C)C)NC(=O)[C@H](CCC(N)=O)NC(=O)[C@H](C)NC(=O)[C@H](Cc2c[nH]c3ccccc23)NC(=O)[C@H](Cc2ccc(O)cc2)NC(=O)[C@H](C(C)C)NC1=O)[C@@H](C)O (single isomer, unassigned) .
Output: 100 to 1000 nM

Task: State the recorded IC50 for this entry: CCCC[C@H](NC(=O)[C@@H](C)NC(=O)[C@H](C)NC(=O)[C@]1(C)CCCC=CCCCCCC[C@@](C)(NC(=O)[C@H](Cc2ccccc2)NC(=O)[C@@H](NC(=O)[C@H](CC(C)C)NC(C)=O)[C@@H](C)O)C(=O)N[C@@H](C)C(=O)N[C@@H](Cc2ccc(O)cc2)C(=O)N[C@@H](Cc2c[nH]c3ccccc23)C(=O)N[C@@H](C)C(=O)N[C@@H](CCC(N)=O)C(=O)N[C@@H](CC(C)C)C(=O)N1)C(=O)N[C@@H](C)C(N)=O (single isomer, unassigned)
Output: 10 to 100 nM

Task: Any idea what IC50 was measured for CC(=O)N[C@@H](CC(C)C)C(=O)N[C@H](C(=O)N[C@@H](Cc1ccccc1)C(=O)N[C@]1(C)CCCCCCC=CCCC[C@@](C)(C(=O)N[C@@H](Cc2c[nH]cn2)C(=O)NC(C)(C)C(=O)N[C@@H](CCC(C)C)C(=O)N[C@H](C(N)=O)C(C)C)NC(=O)[C@H](CC(C)C)NC(=O)[C@H](CCC(N)=O)NC(=O)[C@H](C)NC(=O)[C@H](Cc2c[nH]c3ccccc23)NC(=O)[C@H](Cc2ccc(O)cc2)NC(=O)[C@H](C)NC1=O)[C@@H](C)O [compound 49] (Ac-LTF[R8]AYWAQL[S5]H[Aib][hLeu]V-NH2; staple 4-11) ?
Output: 100 to 1000 nM

Task: So what does the record say about IC50 for CC(=O)N[C@@H](C(=O)N[C@H](C)C(=O)N[C@H](Cc1c[nH]c2ccccc12)C(=O)N[C@H](Cc1ccc(O)cc1)C(=O)N[C@]1(C)CCCC=CCCC[C@](C)(C(=O)N[C@H](CC(C)C)C(=O)N[C@H](CC(C)C)C(=O)N[C@H](CCCNC(=N)N)C(N)=O)NC(=O)[C@@H](CCC(=O)O)NC(=O)[C@@H](Cc2ccc(C(F)(F)F)cc2)NC(=O)[C@@H](CC(N)=O)NC1=O)[C@H](C)O [compound 753] (Ac-[dT][dA][dW][dY][R5][dN][dPhe(4-CF3)][dE][R5][dL][dL][dR]-NH2; staple 5-9) ?
Output: > 1000 nM

Others:
Task: Using the record for CC(=O)N[C@@H](CC(C)C)C(=O)N[C@H](C(=O)N[C@@H](Cc1ccccc1)C(=O)N[C@]1(C)CCCCCCC=CCCC[C@@](C)(C(=O)N[C@@H](CO)C(=O)N[C@@H](C)C(=O)N[C@@H](C)C(N)=O)NC(=O)[C@H](CC(C)C)NC(=O)[C@H](CCC(N)=O)NC(=O)[C@H](C)NC(=O)[C@H](Cc2c[nH]c3ccccc23)NC(=O)[C@H](CCC(=O)O)NC(=O)[C@H](C)NC1=O)[C@@H](C)O (single isomer, unassigned) , report its IC50.
Output: 100 to 1000 nM
